- SYSTEM NAME: Fbw7 (UniProt Q969H0 263-707, limits assumed)
- Sequence (Q969H0 263-707 limits assumed): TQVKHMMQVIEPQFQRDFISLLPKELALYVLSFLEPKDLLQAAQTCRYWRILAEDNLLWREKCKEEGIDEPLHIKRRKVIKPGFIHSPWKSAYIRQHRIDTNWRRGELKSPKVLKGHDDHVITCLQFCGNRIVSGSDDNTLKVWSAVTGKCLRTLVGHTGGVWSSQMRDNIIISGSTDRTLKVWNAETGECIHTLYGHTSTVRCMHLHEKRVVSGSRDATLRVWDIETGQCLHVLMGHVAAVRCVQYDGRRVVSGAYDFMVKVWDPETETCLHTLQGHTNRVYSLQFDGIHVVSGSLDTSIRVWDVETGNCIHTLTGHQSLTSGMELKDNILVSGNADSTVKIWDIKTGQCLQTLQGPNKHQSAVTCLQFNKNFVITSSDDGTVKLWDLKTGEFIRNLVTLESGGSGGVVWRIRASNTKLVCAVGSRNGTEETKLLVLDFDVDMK
- RUN DESCRIPTION: cell-based or functional assay
Starred links: 1 amine or outer side, 2 acyl side, 3 side chain; linkers in the order of their positions; H or OH if unused. Non-standard residues stand in square brackets, D forms with d. No end group written: not given here. *: point of attachment. Phe(4-NO2) = N[C@@H](Cc1ccc([N+](=O)[O-])cc1)C(=O)O; 4‑(BuO)‑PhSO2 = CCCCOc1ccc(S(=O)(=O)*)cc1; E(Me) = COC(=O)CC[C@H](N[*:1])C(=O)[*:2]; Phe(3-Cl) = N[C@@H](Cc1cccc(Cl)c1)C(=O)O; Phe(3-F) = N[C@@H](Cc1cccc(F)c1)C(=O)O; Phe(4-F) = N[C@@H](Cc1ccc(F)cc1)C(=O)O; 1Nal = N[C@@H](Cc1cccc2ccccc12)C(=O)O; Maleoyl = O=C(/C=C\C(=O)[*:2])[*:1]; pS = N[C@@H](COP(=O)(O)O)C(=O)O; Suc = O=C(CCC(=O)[*:2])[*:1]; Tos = Cc1ccc(S(=O)(=O)*)cc1
# note: exactly 8% is not below, so it is condition not met; use condition met for % Inhibition Fbw7 @ (100 µM) strictly under it

Worked examples follow.
BINDER: D[pS]GIFE-NH2 (N-terminus assumed; SMILES CC[C@H](C)[C@H](NC(=O)CNC(=O)[C@H](COP(=O)(O)O)NC(=O)[C@@H](N)CC(=O)O)C(=O)N[C@@H](Cc1ccccc1)C(=O)N[C@@H](CCC(=O)O)C(N)=O) [DpSGIFE-NH2]
CLASS LABEL: condition met
--
BINDER: {4‑(BuO)‑PhSO2}-[dD]EG[Phe(3-F)]WE-NH2 (also called UBP030) [4-(BuO)-PhSO2-dEGF(3F)WE-NH2]
CLASS LABEL: condition not met
--
BINDER: Tos-[dD]EG[Phe(3-F)]W[E(Me)]-NH2 (also called UBP032) [Ts-dEGF(3F)WE(Me)-NH2]
CLASS LABEL: condition not met
--
BINDER: Suc-EG[Phe(3-F)][Phe(4-NO2)]E-NH2 (SMILES NC(=O)[C@H](CCC(=O)O)NC(=O)[C@H](Cc1ccc([N+](=O)[O-])cc1)NC(=O)[C@H](Cc1cccc(F)c1)NC(=O)CNC(=O)[C@H](CCC(=O)O)NC(=O)CCC(=O)O) [Suc-EGF(3F)F(4NO2)E-NH2]
CLASS LABEL: condition met
--
BINDER: Tos-[dD]EG[Phe(3-Cl)]W[E(Me)]-NH2 (also called UBP033) [Ts-dEGF(3Cl)WE(Me)-NH2]
CLASS LABEL: condition not met
--
BINDER: Suc-EG[Phe(3-F)][1Nal]E-NH2 [Suc-EGF(3F)1NalE-NH2]
CLASS LABEL: condition met

Quick check: % Inhibition Fbw7 @ (100 µM) of Maleoyl-EG[Phe(3-F)][Phe(4-NO2)]E-NH2 (SMILES NC(=O)[C@H](CCC(=O)O)NC(=O)[C@H](Cc1ccc([N+](=O)[O-])cc1)NC(=O)[C@H](Cc1cccc(F)c1)NC(=O)CNC(=O)[C@H](CCC(=O)O)NC(=O)/C=C\C(=O)O) [Mal-EGF(3F)F(4NO2)E-NH2] under 8%? condition not met

Lab note: % Inhibition Fbw7 @ (100 µM) threshold 8%. Does this binder come in strictly under it? Tos-[dD]DG[Phe(3-F)]WD-NH2 (SMILES Cc1ccc(S(=O)(=O)N[C@H](CC(=O)O)C(=O)N[C@@H](CC(=O)O)C(=O)NCC(=O)N[C@@H](Cc2cccc(F)c2)C(=O)N[C@@H](Cc2c[nH]c3ccccc23)C(=O)N[C@@H](CC(=O)O)C(N)=O)cc1, also called UBP028) [Ts-dDGF(3F)WD-NH2] condition not met

Is % Inhibition Fbw7 @ (100 µM) of Suc-EGY[Phe(4-NO2)]E-NH2 (SMILES NC(=O)[C@H](CCC(=O)O)NC(=O)[C@H](Cc1ccc([N+](=O)[O-])cc1)NC(=O)[C@H](Cc1ccc(O)cc1)NC(=O)CNC(=O)[C@H](CCC(=O)O)NC(=O)CCC(=O)O) [Suc-EGYF(4NO2)E-NH2] strictly below 8%? condition met

Is the reported % Inhibition Fbw7 @ (100 µM) for QGXXE (N-terminal Suc (succinyl) cap; position 3 F(3F); position 4 F(4NO2); C-terminal amide) [Suc-QGF(3F)F(4NO2)E-NH2] strictly below 8%? condition met

Just wondering, is % Inhibition Fbw7 @ (100 µM) of Suc-EG[Phe(4-F)][Phe(4-NO2)]E-NH2 (SMILES NC(=O)[C@H](CCC(=O)O)NC(=O)[C@H](Cc1ccc([N+](=O)[O-])cc1)NC(=O)[C@H](Cc1ccc(F)cc1)NC(=O)CNC(=O)[C@H](CCC(=O)O)NC(=O)CCC(=O)O) [Suc-EGF(4F)F(4NO2)E-NH2] below 8%? condition met

Record Suc-EG[Phe(4-NO2)][1Nal]E-NH2 (SMILES NC(=O)[C@H](CCC(=O)O)NC(=O)[C@H](Cc1cccc2ccccc12)NC(=O)[C@H](Cc1ccc([N+](=O)[O-])cc1)NC(=O)CNC(=O)[C@H](CCC(=O)O)NC(=O)CCC(=O)O) [Suc-EGF(4NO2)1NalE-NH2] : is its % Inhibition Fbw7 @ (100 µM) strictly below 8%? condition not met

Lab note: confirm whether the reported % Inhibition Fbw7 @ (100 µM) for this binder is below 8%, equality not counting. binder: Ac-[dD]EG[Phe(3-F)]WE-NH2 (also called UBP017) [Ac-dEGF(3F)WE-NH2] condition met
